Test system: Plasmodium falciparum NF54 stage V gametocytes
Experiment: viability index relative to DMSO control (fraction); higher = less gametocyte killing
Conditions: 2.5 µM, library set: Broad Institute DOS, incubation time: 72 h
Whole data set: some 9,900 compounds, median “viability index relative to DMSO control” near 1, cut for the lowest 2% near 0.85. The full list was thinned out, with the lowest values kept by preference.
ASSAY ENDPOINT: viability index

Reported viability index ( C[C@@H]1CN([C@@H](C)CO)C(=O)c2c(c3ccccc3n2C)-c2ccccc2CO[C@@H]1CN(C)C(=O)Nc1ccccc1C(F)(F)F ) = 0.955

Reported viability index ( C[C@@H]1CN([C@@H](C)CO)C(=O)c2c(c3ccccc3n2C)-c2ccccc2CO[C@H]1CN(C)S(=O)(=O)c1ccc([N+](=O)[O-])cc1 ) = 0.93

Reported viability index ( C[C@@H]1CN([C@@H](C)CO)C(=O)c2c(c3ccccc3n2C)-c2ccccc2CO[C@@H]1CN(C)S(=O)(=O)c1ccc([N+](=O)[O-])cc1 ) = 0.998

---

Tested on: Plasmodium falciparum NF54 stage V gametocytes
Experiment: viability index relative to DMSO control (fraction); higher = less gametocyte killing
Details: 2.5 µM, library set: Broad Institute DOS, incubation time: 72 h
Over roughly 9,900 compounds, “viability index relative to DMSO control” has its median near 1; the lowest 2% begin near 0.85. What follows is part of a selection rich in the lowest values, with near analogues and random picks from the rest.
ASSAY ENDPOINT: viability index
The response must contain the number and no unit.

Reported viability index ( O=C(C[C@H]1CC[C@H](NC(=O)C2CC2)[C@@H](CO)O1)Nc1ccccc1 ) = 0.981

Reported viability index ( CC(C)[C@H]1C(=O)N[C@H](c2cccc(Cl)c2)C/C=C/C[C@H](C)Oc2ccccc2C(=O)N1C.CC(C)[C@H]1C(=O)N[C@H](c2cccc(Cl)c2)C/C=C\C[C@H](C)Oc2ccccc2C(=O)N1C ) = 0.986

Reported viability index ( O=C(C[C@H]1CC[C@@H](NC(=O)C2CC2)[C@H](CO)O1)Nc1ccccc1 ) = 0.839

Reported viability index ( O=S(=O)(c1ccc(F)cc1)N1C[C@@H]2N[C@H](C1)[C@H]2c1ccc(/C=C/c2ccccc2)cc1 ) = 1.04

Reported viability index ( CCCN(C)C[C@H]1Oc2cc(/C=C/c3ccccc3)ccc2S(=O)(=O)N([C@H](C)CO)C[C@@H]1C ) = 1.02

Reported viability index ( CCc1csc(N2[C@H](CO)[C@H](c3ccccc3)[C@@H]2CNC)n1 ) = 0.372

Reported viability index ( Cc1ccc(S(=O)(=O)N(C)C[C@H]2Oc3cc(C#CC4CCCC4)ccc3S(=O)(=O)N([C@H](C)CO)C[C@@H]2C)cc1 ) = 0.676

Reported viability index ( C[C@@H]1CN([C@H](C)CO)C(=O)c2ccccc2-c2ccccc2CO[C@@H]1CN(C)C(=O)Nc1cccc(Cl)c1Cl ) = 0.894

Reported viability index ( C[C@H]1CN([C@@H](C)CO)S(=O)(=O)c2ccc(-c3ccncc3)cc2O[C@H]1CN(C)S(C)(=O)=O ) = 1.02

Reported viability index ( CC(C)CC#Cc1ccc([C@@H]2[C@H](CO)N3CCCCN(C(=O)Nc4ccccc4)C[C@@H]23)cc1 ) = 0.877

Reported viability index ( Cc1ccccc1S(=O)(=O)N1C[C@@H]2N[C@H](C1)[C@H]2c1ccc(/C=C/c2ccccc2)cc1 ) = 1

Reported viability index ( CC(C)CC#Cc1ccc([C@@H]2[C@@H](CO)N3CCCCN(C(=O)Nc4ccccc4)C[C@H]23)cc1 ) = 0.844

Reported viability index ( O=C(C[C@H]1CC[C@H](NC(=O)C2CC2)[C@H](CO)O1)Nc1ccccc1 ) = 0.992

Reported viability index ( CO[C@@H](CN(C)Cc1nccs1)[C@@H](C)CN([C@@H](C)CO)S(=O)(=O)c1ccc(F)cc1 ) = 1.04

Reported viability index ( COc1cccc(S(=O)(=O)N(C)C[C@H]2Oc3cc(Br)ccc3S(=O)(=O)N([C@@H](C)CO)C[C@H]2C)c1 ) = 0.978

Reported viability index ( C[C@@H]1CN([C@@H](C)CO)C(=O)c2ccccc2-c2ccccc2CO[C@H]1CN(C)C(=O)Nc1cccc(Cl)c1Cl ) = 0.72

Reported viability index ( C[C@H](CO)N1C[C@H](C)[C@@H](CN(C)C)OCc2ccccc2-c2c(n(C)c3ccccc23)C1=O ) = 1.04

Reported viability index ( O=C(Nc1ccc2c(c1)[C@@H]1C[C@H](CC(=O)N3CCc4ccccc4C3)O[C@@H](CO)[C@@H]1O2)c1ccc2c(c1)OCO2 ) = 0.991

Reported viability index ( C[C@@H]1CN([C@H](C)CO)C(=O)c2ccccc2-c2ccccc2CO[C@H]1CN(C)C(=O)Nc1cccc(Cl)c1Cl ) = 0.863

Reported viability index ( CN(C)CC(=O)N1[C@H](C(=O)Nc2nccs2)[C@@H](CO)[C@@H]2Cn3c(ccc(C4=CCCCC4)c3=O)[C@@H]21 ) = 1.02

Reported viability index ( O=S(=O)(c1ccc(F)cc1)N1C[C@@H]2N[C@H](C1)[C@@H]2c1ccc(/C=C/c2ccccc2)cc1 ) = 0.78

Reported viability index ( C[C@@H]1CN([C@@H](C)CO)S(=O)(=O)c2ccc(C#Cc3cccc(F)c3)cc2O[C@H]1CN(C)S(=O)(=O)c1cn(C)cn1 ) = 0.937

Reported viability index ( C[C@H]1CN([C@@H](C)CO)C(=O)c2ccccc2-c2ccccc2CO[C@H]1CN(C)C(=O)Nc1ccc(-c2ccccc2)cc1 ) = 0.724

Reported viability index ( C[C@@H]1CN([C@@H](C)CO)C(=O)c2ccccc2-c2ccccc2CO[C@@H]1CN(C)C(=O)Nc1cccc(Cl)c1Cl ) = 0.946

Reported viability index ( C[C@H]1CN([C@@H](C)CO)C(=O)c2ccccc2-c2ccccc2CO[C@H]1CN(C)C(=O)Nc1cccc(Cl)c1Cl ) = 0.921

Reported viability index ( O=C(Cc1cccnc1)N1CC(=O)N2[C@@H](CO)[C@H](c3ccc(/C=C/c4ccccc4)cc3)[C@@H]2C1 ) = 1.02

Reported viability index ( C[C@@H]1CN([C@@H](C)CO)C(=O)c2ccccc2-c2ccccc2CO[C@@H]1CN(C)C(=O)Nc1ccc(-c2ccccc2)cc1 ) = 0.977

Reported viability index ( CCCN(C)C[C@@H]1Oc2cc(/C=C/c3ccccc3)ccc2S(=O)(=O)N([C@@H](C)CO)C[C@H]1C ) = 1.1

Reported viability index ( CCc1csc(N2[C@H](CO)[C@H](c3ccccc3)[C@@H]2CN(C)C(=O)C2CCC2)n1 ) = 1.03

Reported viability index ( CCCC#Cc1ccc2c(c1)[C@@H]1[C@@H](CCN1S(=O)(=O)c1cccc(F)c1)[C@@H](CO)N2C ) = 1.12

Reported viability index ( C[C@H](CO)N1C[C@H](C)[C@@H](CN(C)C(=O)Nc2ccc(-c3ccccc3)cc2)OCc2ccccc2-c2ccccc2C1=O ) = 1.02
